# protocol.text: Cytotoxicity assay, HepG2
# Format: cell-based
# applied.conditions: human, HepG2 cells, viability dye, flow cytometry

[
  {
    "molecule": "CC(=O)N(c1cc(C(=O)O)cc2[nH]ccc12)[C@@H]1O[C@H](CO)[C@@H](S[C@@H]2O[C@H](CO)[C@H](O)[C@H](n3cc(-c4cccc(F)c4)nn3)[C@H]2O)[C@H](O)[C@H]1O",
    "CC50 at 24 h": "> 300 µM"
  },
  {
    "molecule": "OC[C@H]1O[C@@H](S[C@@H]2O[C@H](CO)[C@H](O)[C@H](n3cc(-c4cccc(F)c4)nn3)[C@H]2O)[C@H](O)[C@@H](n2cc(-c3cccc(F)c3)nn2)[C@H]1O [GB0139, reference compound]",
    "CC50 at 24 h": "> 300 µM"
  }
]
